test system: MV-4-11 cells; assay: AML cell viability assay (RealTime-Glo); assay type: cell-based; conditions: Homo sapiens, MV4-11; IC50 class; MV-4-11 cells, RealTime-Glo after 44 hrs of treatment (TABLE 3); read-out: Cell viability classification
Structures can show the parent of a compound that is named as a salt.
compounds and their reported IC50

Use the examples below as a reference point.
INSERT INTO results (compound, result) VALUES
  ('NC[C@]1(O)CC[C@H](N(CCCC(F)(F)F)c2cccc3c2CN(C2CCC(=O)NC2=O)C3=O)CC1 (stereo partly shown) [Compound 530]', '> 1000 nM'),
  ('CC(C)(C)CCN(CCCCN)c1cccc2c1CN(C1CCC(=O)NC1=O)C2=O (stereo not shown) [Compound 223]', '< 100 nM'),
  ('C/C=C\CCN(CCCCN)c1cccc2c1CN(C1CCC(=O)NC1=O)C2=O (stereo not shown) [Compound 94]', '< 100 nM'),
  ('CCCCCN(c1cccc2c1CN(C1CCC(=O)NC1=O)C2=O)[C@H]1CC[C@@H](C(N)=O)CC1 (stereo partly shown) [Compound 307]', '< 100 nM'),
  ('N[C@H]1CC[C@H](N(CCC2CCOCC2)c2cccc3c2CN(C2CCC(=O)NC2=O)C3=O)CC1 (stereo partly shown) [Compound 240, hydrochloride]', '100 to 1000 nM');

## Input // lookup IC50 for CCCCCN(c1cccc2c1CN(C1CCC(=O)NC1=O)C2=O)[C@@H]1CC[C@@H](CN)C1 (stereo partly shown) [Compound 325, HCl salt]
## Output < 100 nM

## Input Moving on to CCCCCN(c1cccc2c1CN(C1CCC(=O)NC1=O)C2=O)[C@H]1CC[C@H](NCC2CC2)CC1 (stereo partly shown) [Compound 313, hydrochloride]
## Output < 100 nM

###

test system: MV-4-11 cells; assay: AML cell viability assay (RealTime-Glo); assay type: cell-based; conditions: Homo sapiens, MV4-11; IC50 class; MV-4-11 cells, RealTime-Glo after 44 hrs of treatment (TABLE 1); read-out: Cell viability classification
pIC50: −log10 of the molar value. Counter-ions that a name gives are not always drawn.
metric: pIC50

INSERT INTO results (compound, metric, result) VALUES
  ('N[C@H]1CC[C@H](N(CCCC2CCCOC2)c2cccc3c2CN(C2CCC(=O)NC2=O)C3=O)CC1 (stereo partly shown) [Compound 340, HCl]', 'pIC50', '6.00 to 7.00'),
  ('N[C@H]1CC[C@@H](N(CCCC2CCOCC2)c2cccc3c2CN(C2CCC(=O)NC2=O)C3=O)C1 (stereo partly shown) [Compound 353]', 'pIC50', '6.00 to 7.00'),
  ('CC(C)(C)CCN(c1cccc2c1CN(C1CCC(=O)NC1=O)C2=O)[C@H]1CC[C@@H](CN)CC1 (stereo partly shown) [Compound 332]', 'pIC50', '> 7.00');

Turning now to a further record.
## Input // lookup pIC50 for CCCN(CCCN)c1cccc2c1CN(C1CCC(=O)NC1=O)C2=O (stereo not shown) [Compound 53]
## Output 6.00 to 7.00

###

molecules and their reported IC50
tested on: MV-4-11 cells; assay: AML cell viability assay (RealTime-Glo); assay type: cell-based; conditions: Homo sapiens, MV4-11; IC50 class; MV-4-11 cells, RealTime-Glo after 44 hrs of treatment (TABLE 5); read-out: Cell viability classification

INSERT INTO assay_data (molecule, experimentalsystem, result) VALUES
  ('NCC12CC(N(CCC3CC3)c3cccc4c3CN(C3CCC(=O)NC3=O)C4=O)(C1)C2 (centres unmarked)', 'MV-4-11 cells', '100 to 1000 nM'),
  ('CC1(C)CC(CN(c2cccc3c2CN(C2CCC(=O)NC2=O)C3=O)[C@H]2CC[C@H](NCC3(C(F)(F)F)CC3)CC2)C1 (some centres unmarked)', 'MV-4-11 cells', '> 1000 nM'),
  ('O=C1CCC(N2Cc3c(cccc3N(CCC3CC3)[C@H]3CC[C@H](N4CCC(F)(F)C4)CC3)C2=O)C(=O)N1 (some centres unmarked)', 'MV-4-11 cells', '100 to 1000 nM');

## Input // lookup IC50 for O=C1CCC(N2Cc3c(cccc3N(CCC3CC3)[C@H]3CC[C@H](N4CC[C@H](C(F)(F)F)C4)CC3)C2=O)C(=O)N1 (some centres unmarked)
## Output 100 to 1000 nM

## Input Moving on to O=C1CCC(N2Cc3c(cccc3N(CCC3CC3)[C@H]3CC[C@H](NCCC(F)F)CC3)C2=O)C(=O)N1 (some centres unmarked)
## Output < 100 nM

## Input Moving on to O=C1CCC(N2Cc3c(cc(F)cc3N(CCC3CC3)[C@H]3CC[C@@H](NCC4(C(F)(F)F)CC4)CC3)C2=O)C(=O)N1 (some centres unmarked) [Compound 658A]
## Output > 1000 nM

## Input Moving on to O=C1CCC(N2Cc3c(cccc3N(CCC3CC3)[C@H]3CC[C@H](N4CC(C(F)(F)F)C4)CC3)C2=O)C(=O)N1 (some centres unmarked)
## Output > 1000 nM

## Input Moving on to CN(C)[C@H]1CC[C@H](N(CCC2CC2)c2cccc3c2CN(C2CCC(=O)NC2=O)C3=O)CC1 (some centres unmarked)
## Output < 100 nM

## Input Moving on to O=C1CCC(N2Cc3c(cccc3N(CCC3CC3)C34CC(CNCCC(F)(F)F)(C3)C4)C2=O)C(=O)N1 (centres unmarked)
## Output 100 to 1000 nM

## Input Moving on to O=C1CCC(N2Cc3c(cccc3N(CCC3CC3)[C@H]3CC[C@@H](N4CC[C@H](C(F)(F)F)C4)CC3)C2=O)C(=O)N1 (some centres unmarked) [Compound 712A]
## Output > 1000 nM

###

biological target: CK1α (Homo sapiens, UniProt P48729+Q96SW2); assay: CK1α degradation, flow cytometry in MV4-11 cells; assay type: cell-based; set-up: CK1α levels were determined in MV-4-11 cells using Jess (Protein Simple); host or cells: MV-4-11; details: % reduction of CK1α compared to DMSO, MV4-11 cells at 316 nM for 16 hours, read-out: CK1α degradation classification
Sequence (P48729 whole entry): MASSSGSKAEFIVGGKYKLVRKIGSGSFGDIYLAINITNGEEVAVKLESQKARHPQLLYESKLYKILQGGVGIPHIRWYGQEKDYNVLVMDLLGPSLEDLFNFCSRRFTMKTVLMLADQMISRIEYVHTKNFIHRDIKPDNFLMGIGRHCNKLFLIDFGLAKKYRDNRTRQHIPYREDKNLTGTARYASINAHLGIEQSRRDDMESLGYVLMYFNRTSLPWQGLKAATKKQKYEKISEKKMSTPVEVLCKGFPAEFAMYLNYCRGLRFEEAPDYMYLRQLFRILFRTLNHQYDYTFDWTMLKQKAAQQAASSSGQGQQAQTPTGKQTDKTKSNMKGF
Sequence (Q96SW2 whole entry): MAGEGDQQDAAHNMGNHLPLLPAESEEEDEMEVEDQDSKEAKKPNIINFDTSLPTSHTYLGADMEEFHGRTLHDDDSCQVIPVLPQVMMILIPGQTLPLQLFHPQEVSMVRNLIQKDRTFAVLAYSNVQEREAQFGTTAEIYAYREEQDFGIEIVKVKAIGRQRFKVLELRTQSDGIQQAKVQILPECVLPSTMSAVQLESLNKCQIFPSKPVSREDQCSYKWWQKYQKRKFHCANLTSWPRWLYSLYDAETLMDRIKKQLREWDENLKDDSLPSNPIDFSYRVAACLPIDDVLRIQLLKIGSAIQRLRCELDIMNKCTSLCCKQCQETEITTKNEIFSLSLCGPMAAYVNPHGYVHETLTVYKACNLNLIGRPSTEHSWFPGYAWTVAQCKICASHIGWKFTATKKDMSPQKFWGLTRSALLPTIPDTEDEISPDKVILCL
Sequence (Q16531 whole entry partner): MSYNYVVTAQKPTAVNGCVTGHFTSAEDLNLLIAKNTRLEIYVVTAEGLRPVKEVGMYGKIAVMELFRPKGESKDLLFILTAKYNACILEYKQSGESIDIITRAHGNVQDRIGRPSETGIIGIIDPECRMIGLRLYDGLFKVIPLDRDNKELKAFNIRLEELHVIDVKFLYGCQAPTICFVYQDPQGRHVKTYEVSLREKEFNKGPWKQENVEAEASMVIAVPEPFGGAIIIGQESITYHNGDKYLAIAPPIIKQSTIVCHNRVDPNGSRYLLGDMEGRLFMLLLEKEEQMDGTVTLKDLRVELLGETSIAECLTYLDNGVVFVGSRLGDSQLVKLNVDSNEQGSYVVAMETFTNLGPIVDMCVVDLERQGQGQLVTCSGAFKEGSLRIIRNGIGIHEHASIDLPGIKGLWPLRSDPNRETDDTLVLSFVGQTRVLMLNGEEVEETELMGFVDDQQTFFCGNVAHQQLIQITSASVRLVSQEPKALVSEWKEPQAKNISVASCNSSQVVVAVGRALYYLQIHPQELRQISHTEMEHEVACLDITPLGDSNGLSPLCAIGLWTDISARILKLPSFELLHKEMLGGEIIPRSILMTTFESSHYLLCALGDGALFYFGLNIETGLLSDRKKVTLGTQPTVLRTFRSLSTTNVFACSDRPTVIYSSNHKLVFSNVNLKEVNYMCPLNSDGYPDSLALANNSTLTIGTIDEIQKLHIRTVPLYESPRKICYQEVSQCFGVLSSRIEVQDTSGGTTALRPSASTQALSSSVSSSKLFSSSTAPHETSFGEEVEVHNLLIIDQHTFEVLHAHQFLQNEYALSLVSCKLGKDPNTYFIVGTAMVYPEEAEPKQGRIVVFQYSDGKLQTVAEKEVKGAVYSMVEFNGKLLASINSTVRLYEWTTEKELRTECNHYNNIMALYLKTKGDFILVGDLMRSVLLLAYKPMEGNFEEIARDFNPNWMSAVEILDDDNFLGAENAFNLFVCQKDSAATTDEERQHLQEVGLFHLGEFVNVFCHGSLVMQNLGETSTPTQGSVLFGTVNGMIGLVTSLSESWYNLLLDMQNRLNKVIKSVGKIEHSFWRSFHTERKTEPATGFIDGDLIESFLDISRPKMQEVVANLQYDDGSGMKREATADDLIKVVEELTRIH
metric: Dmax at 0.316 µM

## Input // lookup Dmax at 0.316 µM for O=C1CCC(N2Cc3c(cccc3N(CC3CC3)[C@H]3CC[C@H](NCCC(F)(F)F)CC3)C2=O)C(=O)N1 (stereo partly shown)
## Output > 75%

## Input Moving on to COC(C)(C)CN[C@H]1CC[C@H](N(CCC2CC2)c2cccc3c2CN(C2CCC(=O)NC2=O)C3=O)CC1 (stereo partly shown)
## Output > 75%

###

Biological target: CK1α (Homo sapiens, UniProt P48729+Q96SW2)
Assay: CK1α degradation, flow cytometry in MV4-11 cells
Type: cell-based
Parameters: CK1α levels were determined in MV-4-11 cells using Jess (Protein Simple); host or cells: MV-4-11
Conditions: % reduction of CK1α compared to DMSO, MV4-11 cells at 316 nM for 16 hours, read-out: CK1α degradation classification
Description: MV-4-11 cells were obtained from ATCC and grown in IMDM supplemented with 10% FBS. The cells were maintained at 37° C. under 5% CO2. Compounds of the present disclosure were added to cells (final DMSO concentration of 0.5%) and incubated for 16 hours. CK1α level was determined in MV4-11 cells using flow cytometry (Luminex, Guava EasyCyte Plus). […] Protein levels relative to DMSO are calculated for CK1α. […] Protein levels relative to DMSO are calculated for CK1α.
Where a name gives a salt, the structure may show the parent alone.
compounds and their reported Dmax at 0.316 µM

INSERT INTO results (compound, experimentalsystem, result) VALUES
  ('NC[C@]1(O)CC[C@H](N(CC2CC2)c2cccc3c2CN(C2CCC(=O)NC2=O)C3=O)CC1 (some centres unmarked) [Compound 536]', 'CK1α (Homo sapiens, UniProt P48729+Q96SW2)', '< 50%');

## Input // lookup Dmax at 0.316 µM for CCCCCN(c1cccc2c1CN(C1CCC(=O)NC1=O)C2=O)[C@H]1CC[C@H](NC)CC1 (some centres unmarked) [Compound 169, hydrochloride]
## Output > 75%

## Input Moving on to O=C1CCC(N2Cc3c(cccc3N(CCC3CC3)[C@H]3CC[C@H](NC4COC4)CC3)C2=O)C(=O)N1 (some centres unmarked) [Compound 517]
## Output > 75%

## Input Moving on to NCC(F)(F)CCN(CCC1CC1)c1cccc2c1CN(C1CCC(=O)NC1=O)C2=O (centres unmarked) [Compound 518]
## Output > 75%

## Input Moving on to CCCCCN(CCCCNCCC(C)C)c1cccc2c1CN(C1CCC(=O)NC1=O)C2=O (centres unmarked) [Compound 167, HCl]
## Output > 75%

## Input Moving on to CCCCCN(c1cccc2c1CN(C1CCC(=O)NC1=O)C2=O)[C@H]1CC[C@H](C(N)=O)CC1 (some centres unmarked) [Compound 305]
## Output > 75%

## Input Moving on to O=C1CCC(N2Cc3c(cccc3N(CCC3CC3)[C@H]3CC[C@@H](NC4CC(F)(F)C4)CC3)C2=O)C(=O)N1 (some centres unmarked) [Compound 515A]
## Output 50 to 75%

## Input Moving on to CCCCCN(c1cccc2c1CN(C1CCC(=O)NC1=O)C2=O)[C@H]1CC[C@H](NCC(C)C)CC1 (some centres unmarked) [Compound 311, HCl]
## Output > 75%

## Input Moving on to CCCCCN(c1cccc2c1CN(C1CCC(=O)NC1=O)C2=O)[C@H]1CC[C@@H](C(N)=O)CC1 (some centres unmarked) [Compound 307]
## Output > 75%

## Input Moving on to CCCCCN(c1cccc2c1CN(C1CCC(=O)NC1=O)C2=O)[C@H]1CC[C@H](NC(C)=O)CC1 (some centres unmarked) [Compound 168]
## Output > 75%

## Input Moving on to CC(C)(C)CCN(c1cccc2c1CN(C1CCC(=O)NC1=O)C2=O)[C@H]1CC[C@H](N)CC1 (some centres unmarked) [Compound 267, hydrochloride]
## Output > 75%

## Input Moving on to COCCN[C@H]1CC[C@H](N(CCC2CC2)c2cccc3c2CN(C2CCC(=O)NC2=O)C3=O)CC1 (some centres unmarked) [Compound 542]
## Output > 75%
